- Tested on: SNB-75
- MEASUREMENT NOTES: NCI tumour cell line growth inhibition, 48 h
Active and inactive are the calls of the source. Cut-off read from the data, not from the text of the source: active = GI50 up to about 1.1 µM and inactive = higher.
ATTRIBUTE MEASURED: GI50

> print(dat)
                                   compound       value.reported
1  O=C(CSCC(=O)N/N=C\c1cc(Br)cc(Br)c1O)N/N=C\c1cc(Br)cc(Br)c1O     24 µM (inactive)
2  COC(=O)C(/C(=N/N)C(=O)Nc1cc(Cl)c(Cl)cc1Cl)c1nc2ccc(Cl)cc2nc1O (stereo not drawn)  > 100 µM (inactive)
3  N#Cc1c(-c2ccccc2)c(C#N)c(=S)n(C2OCC(O)C(O)C2O)c1N (stereo not drawn)  > 100 µM (inactive)

----------
- Tested on: OVCAR-8
- MEASUREMENT NOTES: NCI tumour cell line growth inhibition, 48 h
Calls of active or inactive are those of the source. Cut-off read from the data, not from the text of the source: active = GI50 up to about 1.1 µM and inactive = higher.
ATTRIBUTE MEASURED: GI50

> print(dat)
                                   compound  attribute.measured       value.reported
1  O=c1c(-c2ccccc2)c2oc(c1-c1ccccc1)CS(=O)(=O)CCC2                GI50   36.8 µM (inactive)
2  C[C@]12CCC(=O)C=C1CC[C@@H]1C2CC[C@]2(C)c3nn(-c4ccccc4)nc3CC12 (stereo partly specified)                GI50  > 100 µM (inactive)
3  O=c1c(Cc2ccc(Cl)cc2)nnc2sc(-c3ccc(-c4ccc(Cl)cc4Cl)o3)nn12                GI50   48.6 µM (inactive)
4                O=C1OCC(c2ccc(Cl)cc2)=C1Cl                GI50   25.5 µM (inactive)
5  CC(C(=O)NCCNC(=O)CCCC(=O)N(C)O)C(=O)NCCNC(=O)CCCC(=O)N(C)O                GI50  > 100 µM (inactive)
6  CC(C)(C)/N=c1/n(C(C)(C)C)oc(=O)n1C(C)(C)C                GI50  > 100 µM (inactive)

----------
- Tested on: SF-268
- MEASUREMENT NOTES: NCI tumour cell line growth inhibition, 48 h
The source made the active and inactive calls. Cut-off read from the data, not from the text of the source: active = GI50 up to about 1.1 µM and inactive = higher.
ATTRIBUTE MEASURED: GI50

> print(dat)
                                    molecule  attribute.measured       value.reported
 1  CCOP(=O)(CCCC(O)CNc1cc(Cl)nc(N)n1)OCC (stereo not given)                GI50  > 100 µM (inactive)
 2  Cn1nc(-c2ccccc2)c2c(/C=C/c3ccc(Cl)cc3)onc2c1=O                GI50  > 100 µM (inactive)
 3                    Nc1ccccc1Sc1ccc(Cl)cc1                GI50   39.6 µM (inactive)
 4  O=C1c2cc(Cl)ccc2N=C(NCCCl)C2CSCN12 (stereo not given)                GI50  > 100 µM (inactive)
 5            CCc1[nH]nc(C(N)=O)c1/N=N/N(C)C                GI50   47.2 µM (inactive)
 6    N#Cc1c(-c2ccccc2)cc(-c2cccs2)c(C#N)c1N                GI50  > 100 µM (inactive)
 7  C[C@]12CC[C@@H]3c4ccc(OC(=O)c5ccccc5)cc4CC[C@H]3[C@@H]1CCC2OC(=O)c1cccc2c(=O)c3ccccc3[nH]c12 (stereo not given in full)                GI50   22.8 µM (inactive)
 8  CC(C)(C)C1CC[C@H](O)[C@H]([C@@H](O)CC2CC(=O)N(c3ccccc3)C(=O)C2)C1 (stereo not given in full)                GI50  > 100 µM (inactive)
 9  Cc1nc2ccccc2c(=O)n1NC(=O)c1ccccc1[N+](=O)[O-]                GI50  > 100 µM (inactive)
10                 COc1cccc(/C=N/NC(N)=O)c1O                GI50  > 100 µM (inactive)

----------
- Tested on: M14
- MEASUREMENT NOTES: NCI tumour cell line growth inhibition, 48 h
Activity calls are given as the source filed them. No stated cut-off is given here; in the data, active = GI50 up to about 1.1 µM and inactive = higher.
ATTRIBUTE MEASURED: GI50

> print(dat)
                                    compound  study.system       value.reported
 1  CN1C/C(=C\c2ccc(Cl)cc2)C(=O)/C(=C/c2ccc(Cl)cc2)C1           M14   1.73 µM (inactive)
 2                 N#CC(=S)Nc1ccc(Cl)c(Cl)c1           M14   24.6 µM (inactive)
 3  C/C=C/COc1cc(NC(=S)OC(C)C)ccc1Cl.C/C=C\COc1cc(NC(=S)OC(C)C)ccc1Cl           M14   24.2 µM (inactive)
 4  COc1cc(COC(=O)N2CC=CC2C(=O)O)c([N+](=O)[O-])cc1OC (stereo not given)           M14  > 100 µM (inactive)
 5  COc1ccc(-c2c(C#N)c(O)n(NS(=O)(=O)c3ccc(C)cc3)c(=O)c2C#N)cc1           M14  > 100 µM (inactive)
 6          CCOc1ccc(/N=C/c2ccc3ccccc3n2)cc1           M14  > 100 µM (inactive)
 7  CC1C[C@]2(C)C(=O)N(c3ccccc3)C(=N)[C@@H]2N(C)c2ccccc21 (stereo not given in full)           M14  > 100 µM (inactive)
 8  COc1cc(C(C)O)c[n+](CCc2c[nH]c3ccccc23)c1 (stereo not given)           M14  > 100 µM (inactive)
 9  O=C(N/N=C/c1ccc(Br)cc1)N/N=C/c1ccc(Br)cc1           M14   11.1 µM (inactive)
10  CC(=O)Oc1ccc2c(c1)oc1c3ccc(OC(C)=O)cc3n(C)c(=O)c21           M14   10.3 µM (inactive)

----------
- Test system: COLO 205
- MEASUREMENT NOTES: NCI tumour cell line growth inhibition, 48 h
Active and inactive are the calls of the source. Rule as the data show it: active = GI50 up to about 1.1 µM and inactive = higher.
ATTRIBUTE MEASURED: GI50

COMPOUND	ATTRIBUTE MEASURED	VALUE REPORTED
CC(=O)O[C@H]1C[C@@H](OC(C)=O)[C@@](C)(O)[C@@H]2[C@@H](OC(C)=O)[C@@]3(O)[C@H](/C=C(/CCl)[C@H]4O[C@H]4[C@@H](OC(C)=O)[C@@]12C)OC(=O)[C@@H]3C	GI50	> 25 µM (inactive)
CC(=O)OC12c3ccccc3C(c3ccccc31)C1C(=O)N(c3ccccc3O)C(=O)C12 (centres undefined)	GI50	> 100 µM (inactive)
C[C@@H]1OC(=O)C[C@H]2CC(=O)N(CCC3CN(S(=O)(=O)C(F)(F)F)c4ccc(Cc5ccc6c(c5)C(CCN5C[C@H]7[C@@H](CC(=O)O[C@H]7C)CC5=O)CN6S(=O)(=O)C(F)(F)F)cc43)C[C@@H]21 (some centres undefined)	GI50	> 100 µM (inactive)
COC(=O)c1sc(=S)sc1SCc1ccccc1CSc1sc(=S)sc1C(=O)OC	GI50	> 100 µM (inactive)

----------
Catalogue of molecules with associated GI50
- Tested on: RXF 631
- MEASUREMENT NOTES: NCI tumour cell line growth inhibition, 48 h
Activity calls are given as the source filed them. Cut-off read from the data, not from the text of the source: active = GI50 up to about 1.1 µM and inactive = higher.
ATTRIBUTE MEASURED: GI50

> print(dat)
                                   molecule  attribute.measured       value.reported
1  COc1cc(/C=C(\NC(=O)c2ccccc2)c2nc3ccc4c(c3[nH]2)C(=O)c2ccccc2C4=O)cc(OC)c1OC                GI50   58.7 µM (inactive)
2  O=C(O)C1CCc2nnc(-c3ccccc3)n21 (stereo not given)                GI50  > 100 µM (inactive)
3         Cc1ccc(N2C(=O)C(Cl)=C(Cl)C2=O)cc1                GI50   21.1 µM (inactive)
4  O=P1(N(CCCl)CCCl)NCCCO1 (stereo not given) [CYCLOPHOSPHAMIDE ANHYDROUS]                GI50  > 250 µM (inactive)
5  C=C1C(=O)C23[C@H](O)C1CC[C@H]2[C@]12COC3(O)[C@@H](O)[C@@H]1C(C)(C)CC[C@@H]2O                GI50   10.1 µM (inactive)

----------
- Tested on: U-251
- MEASUREMENT NOTES: NCI tumour cell line growth inhibition, 48 h
Activity calls are given as the source filed them. Rule as the data show it: active = GI50 up to about 1.1 µM and inactive = higher.
Outcomes: active, inactive

COMPOUND	LABEL VALUE
O=C1/C(=C\c2cccc(Oc3ccccc3)c2)SC(c2ccccc2)N1c1ccccc1Cl (stereo not drawn)	inactive
CC(=O)O[C@H]1C(=O)[C@@]2(C)[C@H]([C@H](OC(=O)c3ccccc3)[C@]3(O)C[C@H](OC(=O)[C@H](OC(=O)OCCC(O)CO)[C@@H](NC(=O)c4ccccc4)c4ccccc4)C(C)=C1C3(C)C)[C@]1(OC(C)=O)CO[C@@H]1C[C@@H]2O (stereo partly drawn)	active
COc1cc(C(C)O)c[n+](CCc2c[nH]c3ccccc23)c1 (stereo not drawn)	inactive
